- experimental-system: Transient receptor potential cation channel subfamily V member 1 (Homo sapiens, UniProt Q8NER1)
- Sequence (Q8NER1 whole entry): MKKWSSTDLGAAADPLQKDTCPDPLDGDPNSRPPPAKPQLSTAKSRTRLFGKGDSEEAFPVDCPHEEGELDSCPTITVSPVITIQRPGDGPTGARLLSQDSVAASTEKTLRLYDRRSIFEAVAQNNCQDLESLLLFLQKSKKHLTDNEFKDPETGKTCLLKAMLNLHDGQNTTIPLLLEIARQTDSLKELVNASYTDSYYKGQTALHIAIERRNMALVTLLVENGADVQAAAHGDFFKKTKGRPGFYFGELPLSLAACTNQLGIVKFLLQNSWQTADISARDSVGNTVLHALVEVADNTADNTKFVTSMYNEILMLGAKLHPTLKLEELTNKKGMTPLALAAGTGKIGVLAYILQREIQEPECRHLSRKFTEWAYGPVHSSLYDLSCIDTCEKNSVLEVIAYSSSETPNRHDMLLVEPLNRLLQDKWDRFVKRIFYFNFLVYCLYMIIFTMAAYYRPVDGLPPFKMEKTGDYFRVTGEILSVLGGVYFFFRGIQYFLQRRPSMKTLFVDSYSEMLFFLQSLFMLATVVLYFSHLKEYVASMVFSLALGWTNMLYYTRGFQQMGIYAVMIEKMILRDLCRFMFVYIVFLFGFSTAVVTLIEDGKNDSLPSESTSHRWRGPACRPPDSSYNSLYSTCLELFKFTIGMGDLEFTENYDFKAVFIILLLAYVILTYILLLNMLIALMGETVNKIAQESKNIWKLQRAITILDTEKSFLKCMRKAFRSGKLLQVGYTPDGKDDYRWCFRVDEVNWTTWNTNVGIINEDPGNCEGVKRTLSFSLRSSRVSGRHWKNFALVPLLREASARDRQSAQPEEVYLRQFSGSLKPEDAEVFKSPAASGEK
- test: Antagonist activity at human TRPV1
- Format: functional
IC50 values by entry
Answer format reminder: number followed by unit.

Solved cases below.
1) O=C(NCc1ccc(C(F)(F)F)nc1Oc1ccccc1)Nc1cccc2[nH]ncc12 | 9 nM
2) CC(C)c1cc(C(F)(F)F)ccc1CNC(=O)Nc1cccc2[nH]ncc12 | 9 nM
3) O=C(NCc1ccc(C(F)(F)F)cc1CCc1ccccc1)Nc1cccc2[nH]ncc12 | 8 nM
4) O=C(NCc1ccc(C(F)(F)F)nc1N1CCOCC1)Nc1cccc2[nH]ncc12 | 12 nM
5) CC(C)(C)COc1nc(C(F)(F)F)ccc1CNC(=O)Nc1cccc2[nH]ncc12 | 6 nM

Dear colleague, I am looking for the recorded IC50 of the following compound: O=C(NCc1ccc(-c2ccccc2)nc1N1CCCCC1)Nc1cccc2[nH]ncc12
14 nM

If you can, please state the reported IC50 value of COCCCc1nc(C(F)(F)F)ccc1CNC(=O)Nc1cccc2[nH]ncc12 .
12 nM
